- study system: BesA (Streptantibioticus cattleyicolor)
- Sequence (G8XHD8 whole entry): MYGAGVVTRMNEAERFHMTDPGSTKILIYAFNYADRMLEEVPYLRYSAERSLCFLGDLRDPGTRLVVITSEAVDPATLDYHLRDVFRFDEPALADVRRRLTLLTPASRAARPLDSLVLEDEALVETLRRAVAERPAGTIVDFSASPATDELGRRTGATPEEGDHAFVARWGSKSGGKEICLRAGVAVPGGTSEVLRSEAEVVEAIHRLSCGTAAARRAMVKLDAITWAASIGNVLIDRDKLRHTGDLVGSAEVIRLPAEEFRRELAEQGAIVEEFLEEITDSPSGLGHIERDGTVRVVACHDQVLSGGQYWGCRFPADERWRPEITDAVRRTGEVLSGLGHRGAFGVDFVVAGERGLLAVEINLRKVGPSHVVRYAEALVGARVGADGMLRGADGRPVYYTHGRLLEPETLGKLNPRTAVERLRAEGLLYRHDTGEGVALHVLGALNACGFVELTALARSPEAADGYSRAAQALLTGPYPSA
- test method notes: BesA dipeptide formation in vitro with glutamate and ATP, substrate specificity
- Assay type: biochemical, Streptomyces cattleya
- test parameters: reacted with glutamate, ATP
attribute measured: activity as BesA substrate (ligation to glutamate)

compound	result
C#CCC(N)C(=O)O (stereo not shown)	measurable activity
N[C@@H](CS)C(=O)O	measurable activity
